Tested on: Kiaa1363
testDescription: competitive ABPP of Abhd10 versus anti-targets – biochemical, fluorescence, gel-based, mouse proteome, selectivity assay for PME-1 inhibitor project, late-stage follow-up (AID 588807)
reportedConditions: anti-target, at 10 µM, active compounds read high
measurementType: inhibition (%)
Answers are plain numbers, in %.

A selection of reference data follows.
{"molecule": "CC[C@@]1(c2cccc(C)c2)C(=O)N(C(=O)OC(C)C)N1C(=O)OC(C)C", "inhibition / %": 0}
{"molecule": "CC[C@@]1(c2ccccc2)C(=O)N(C(=O)OC)N1C(=O)OC", "inhibition / %": 0}
{"molecule": "CC[C@@]1(c2cccc(C)c2)C(=O)N(C(=O)OC(C)C)N1C(=O)OC", "inhibition / %": 0}
{"molecule": "CC[C@@]1(c2cccc(C)c2)C(=O)N(C(=O)OC(C)(C)C)N1C(=O)OC(C)(C)C", "inhibition / %": 0}
{"molecule": "C=CCOC(=O)N1C(=O)[C@@](CC)(c2cccc(C)c2)N1C(=O)OC", "inhibition / %": 35}

Record inhibition for all entries; do not skip any.
1. Cc1cccc([C@]2(C)C(=O)N(C(=O)OCc3ccccc3)N2C(=O)OCc2ccccc2)c1
2. C=CCOC(=O)N1C(=O)[C@@](CC)(c2ccccc2)N1C(=O)OC
3. CC[C@@]1(c2cccc(F)c2)C(=O)N(C(=O)OC(C)C)N1C(=O)OC(C)C
4. CCCOC(=O)N1C(=O)C(CC)(c2cccc(C)c2)N1C(=O)OCCC (stereo not drawn)
5. CCC[C@@]1(c2cccc(C)c2)C(=O)N(C(=O)OC)N1C(=O)OC
6. CC[C@@]1(c2ccc(C)cc2)C(=O)N(C(=O)OC(C)C)N1C(=O)OC(C)C

Key:
1: 0; 2: 10; 3: 15; 4: 0; 5: 0; 6: 0

Record inhibition for all entries; do not skip any.
1. CCOC(=O)N1C(=O)[C@@](CC)(c2cccc(C)c2)N1C(=O)OCC
2. CC[C@@]1(c2ccc(Cl)c(Cl)c2)C(=O)N(C(=O)OC)N1C(=O)OC
3. CC[C@@]1(c2cccc(C)c2)C(=O)N(C(=O)OC)N1C(=O)OC(C)C
4. C=CCOC(=O)N1C(=O)[C@@](CC)(c2cccc(C)c2)N1C(=O)OCC=C

Key:
25
0
0
20
